Experiment: Antiamnesic activity in the mouse (step-down passive avoidance, amnesia induced by ECS)
Assay type: in vivo, mouse (CD1 male)
Conditions: po; 0.3 mg/kg OS, mouse, retest 24 h after training; read-out: Reversal of the amnesia (% vs controls), as the increase in the Step Down Latency

[
  {
    "smiles_str": "CCCCCNC(=O)[C@@H](N)CCC(=O)O",
    "change in vivo at 0.3 mg/kg [%]": 0
  },
  {
    "smiles_str": "CC(C)(C)CCNC(=O)[C@@H](N)CCC(=O)O",
    "change in vivo at 0.3 mg/kg [%]": 7
  },
  {
    "smiles_str": "CN1CCN(C(=O)[C@@H](N)CCC(=O)O)CC1",
    "change in vivo at 0.3 mg/kg [%]": 12
  },
  {
    "smiles_str": "N[C@@H](CC(=O)O)C(=O)NCCC12CC3CC(CC(C3)C1)C2",
    "change in vivo at 0.3 mg/kg [%]": 13
  }
]
